B1: TPR t1 (parent)
chain: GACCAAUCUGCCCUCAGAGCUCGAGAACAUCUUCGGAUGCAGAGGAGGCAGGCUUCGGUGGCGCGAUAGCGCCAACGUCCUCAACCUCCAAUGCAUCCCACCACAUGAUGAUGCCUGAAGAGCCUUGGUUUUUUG

- Variants of: B1
- procedure summary: polymerase ribozyme fitness, log enrichment relative to wild type (log ratio); higher = more active; in vitro selection for triplet polymerase activity
Entry flag: fulfilled if polymerase ribozyme fitness (log ratio) reaches -2; not fulfilled if it does not.

{"columns": ["variant notation", "class assignment"],
 "data": [
  ["G71U C97U U112A", "fulfilled"],
  ["C72U C114U C123U U130A G135A", "not fulfilled"]
]}

Request: Identify whether the reported polymerase ribozyme fitness (log ratio) of the following variant is -2 or greater: G44A C94U
Result: fulfilled

Request: In plain terms: is recorded polymerase ribozyme fitness (log ratio) at least -2 for U9G C22G C101A C115U ?
Result: not fulfilled

Request: Please check the record U33G U96A G110C U116G and state if its polymerase ribozyme fitness (log ratio) is at or above -2.
Result: not fulfilled

Request: Check this variant for polymerase ribozyme fitness (log ratio) at or above -2: C12A C64U
Result: fulfilled

Request: Is polymerase ribozyme fitness (log ratio) for C56U G61A at or above -2?
Result: not fulfilled

Request: Form field: polymerase ribozyme fitness (log ratio) at least -2? Entry: G36C C114A G120A
Result: not fulfilled

Request: Is it the case that G63U A74U has polymerase ribozyme fitness (log ratio) reaching or exceeding -2?
Result: not fulfilled
